# measured-target: BRD4 BD2 (Homo sapiens, UniProt O60885, Y97A)
# Construct: BRD4 (1-477) (Y97A) and (Y390A); made in house; host or cells: E. coli (pET15b vector)
# assay: BRD4 BD2 TR-FRET competition assay
# Type: binding
# protocol-conditions: single mutant tandem BRD4 protein, read-out: pIC50 in the BRD4 BD2 assay (converted)
test-readout: IC50 (nM)
Value expressed in nM; do not type the unit.

Below, 2 compounds whose answers are already recorded.
[
  {
    "compound": "CNC(=O)c1cc(C(=O)N[C@H]2C[C@@H]2C)cc(Cc2cncc3[nH]ccc23)n1",
    "IC50, nM": 79.4
  },
  {
    "compound": "CNC(=O)c1cc(C(=O)N[C@H]2C[C@@H]2C)cc(Cc2ccnc3[nH]ccc23)n1",
    "IC50, nM": 39.8
  }
]

For the compound shown here, CNC(=O)c1cc(C(=O)N[C@H]2C[C@@H]2C)cc(Cc2cccc3c2CCN3)n1 , give the reported IC50.
31.6

Now consider CNC(=O)c1cc(C(=O)NC2CC2C)cc(C(C)c2cncc3[nH]ccc23)n1 (stereo not drawn) .
12.6

Origin of the recorded values: patent US10844015B2
